tested on: 4 PI3K isoforms (Human recombinant GST-PI3K); experiment: PI3K scintillation proximity assay, best IC50 obtained with the four isoforms (alpha, beta, delta, gamma); assay type: biochemical; conditions: best IC50 obtained with the four isoforms of PI3K; read-out: Best potency measured on the 4 PI3K isoforms
Listing of recorded IC50 by entry.

compound	assayTarget	unitTag	IC50
O=C(c1nn(C2CCCN(C3COC3)C2)c2c1CS(=O)(=O)c1ccccc1-2)N1CCOCC1 (stereo not drawn) [Example 415]	4 PI3K isoforms (Human recombinant GST-PI3K)	nM	67
O=C(c1nn(-c2cccc(-c3ncon3)c2)c2c1CS(=O)(=O)c1ccccc1-2)N1CCOCC1 [Example 324]	4 PI3K isoforms (Human recombinant GST-PI3K)	nM	6690
O=C(c1nn(C2CCN(CCn3ccnc3)C2)c2c1CS(=O)(=O)c1ccccc1-2)N1CCOCC1 (stereo not drawn) [Example 288]	4 PI3K isoforms (Human recombinant GST-PI3K)	nM	166
O=C(c1nn(-c2cccc(N3CCOCC3)c2)c2c1CS(=O)(=O)c1ccccc1-2)N1CCOCC1 [Example 154]	4 PI3K isoforms (Human recombinant GST-PI3K)	nM	673
O=C(c1nn([C@H]2CCCN(Cc3ccncc3)C2)c2c1CS(=O)(=O)c1ccccc1-2)N1CCOCC1 (stereo in doubt) [Example 473]	4 PI3K isoforms (Human recombinant GST-PI3K)	nM	45
Cc1noc(-c2cccc(-n3nc(C(=O)N4CCOCC4)c4c3-c3ccccc3S(=O)(=O)C4)c2)n1 [Example 196]	4 PI3K isoforms (Human recombinant GST-PI3K)	nM	2690
O=C(c1nn([C@H]2CCCN(CC3CCOCC3)C2)c2c1CS(=O)(=O)c1ccccc1-2)N1CCOCC1 (stereo in doubt) [Example 361]	4 PI3K isoforms (Human recombinant GST-PI3K)	nM	25
Cc1cccc2c1S(=O)(=O)Cc1c(C(=O)N3CCOCC3)nn(-c3ccccc3)c1-2 [Example 202]	4 PI3K isoforms (Human recombinant GST-PI3K)	nM	1740
O=C(c1nn(C2CCCCCC2)c2c1CS(=O)(=O)c1ccccc1-2)N1CCOCC1 [Example 78]	4 PI3K isoforms (Human recombinant GST-PI3K)	nM	469
O=C(c1nn(-c2cccc(Br)c2)c2c1CS(=O)(=O)c1ccccc1-2)N1CCOCC1 [Example 25]	4 PI3K isoforms (Human recombinant GST-PI3K)	nM	616
O=C(c1nn(C2CCN(CCN3CC(F)(F)C3)C2)c2c1CS(=O)(=O)c1ccccc1-2)N1CCOCC1 (stereo not drawn) [Example 311]	4 PI3K isoforms (Human recombinant GST-PI3K)	nM	156
O=C(NC1CCOCC1)c1cccc(-n2nc(C(=O)N3CCOCC3)c3c2-c2ccccc2S(=O)(=O)C3)c1 [Example 148]	4 PI3K isoforms (Human recombinant GST-PI3K)	nM	1260
Cc1ccccc1-c1ccc(-n2nc(C(=O)N3CCOCC3)c3c2-c2ccccc2S(=O)(=O)C3)cc1 [Example 161]	4 PI3K isoforms (Human recombinant GST-PI3K)	nM	6470
O=C(c1nn(-c2cccc(CO)c2)c2c1CS(=O)(=O)c1ccccc1-2)N1CCOCC1 [Example 141]	4 PI3K isoforms (Human recombinant GST-PI3K)	nM	2250
CN1CCN(C(=O)c2ccc3c(c2)-c2c(c(C(=O)N4CCOCC4)nn2-c2ccccc2)CS3(=O)=O)CC1 [Example 114]	4 PI3K isoforms (Human recombinant GST-PI3K)	nM	4280
O=C(c1nn(C2CCCNCC2)c2c1CS(=O)(=O)c1ccccc1-2)N1CCOCC1 (stereo not drawn) [Example 82]	4 PI3K isoforms (Human recombinant GST-PI3K)	nM	1900
O=C(CC1CCOCC1)N1CCC(n2nc(C(=O)N3CCOCC3)c3c2-c2ccccc2S(=O)(=O)C3)C1 (stereo not drawn) [Example 287]	4 PI3K isoforms (Human recombinant GST-PI3K)	nM	733
COc1ccccc1-n1nc(C(=O)N2CCOCC2)c2c1-c1ccccc1S(=O)(=O)C2 [Example 313]	4 PI3K isoforms (Human recombinant GST-PI3K)	nM	14800
O=C(c1nn(C2CCN(CCC3CCOCC3)C2)c2c1CS(=O)(=O)c1ccccc1-2)N1CCOCC1 (stereo not drawn) [Example 270]	4 PI3K isoforms (Human recombinant GST-PI3K)	nM	280
COCCNc1ccc2c(c1)-c1c(c(C(=O)N3CCOCC3)nn1-c1ccccc1)CS2(=O)=O [Example 156]	4 PI3K isoforms (Human recombinant GST-PI3K)	nM	902
Cn1nc(C(=O)N2CCOCC2)c2c1-c1cc([N+](=O)[O-])ccc1S(=O)(=O)C2 [Example 35]	4 PI3K isoforms (Human recombinant GST-PI3K)	nM	2770
O=C(c1nn(C2CCCN(CCN3CC(F)(F)C3)C2)c2c1CS(=O)(=O)c1c(F)cccc1-2)N1CCOCC1 (stereo not drawn) [Example 414]	4 PI3K isoforms (Human recombinant GST-PI3K)	nM	38
O=C(c1nn(-c2ccc(CNC3CCCOC3)cc2)c2c1CS(=O)(=O)c1ccccc1-2)N1CCOCC1 (stereo not drawn) [Example 455]	4 PI3K isoforms (Human recombinant GST-PI3K)	nM	224
COc1ccc(Cn2nc(C(=O)N3CCOCC3)c3c2-c2ccccc2S(=O)(=O)C3)cc1 [Example 38]	4 PI3K isoforms (Human recombinant GST-PI3K)	nM	459
O=C(c1nn(-c2cccc(-c3ccncc3)c2)c2c1CS(=O)(=O)c1ccccc1-2)N1CCOCC1 [Example 187]	4 PI3K isoforms (Human recombinant GST-PI3K)	nM	193
COCCCN1CCCC(n2nc(C(=O)N3CCOCC3)c3c2-c2ccccc2S(=O)(=O)C3)C1 (stereo not drawn) [Example 172]	4 PI3K isoforms (Human recombinant GST-PI3K)	nM	140
O=C(c1nn(-c2ccccn2)c2c1CS(=O)(=O)c1ccccc1-2)N1CCOCC1 [Example 11]	4 PI3K isoforms (Human recombinant GST-PI3K)	nM	1600
O=C(c1nn([C@H]2CCN(C3CCOCC3)C2)c2c1CS(=O)(=O)c1ccccc1-2)N1CCOCC1 (single isomer, unassigned) [Example 402]	4 PI3K isoforms (Human recombinant GST-PI3K)	nM	1440
CN1c2c(C(=O)N3CCOCC3)nn(-c3ccccc3)c2-c2ccccc2S1(=O)=O [Example 488]	4 PI3K isoforms (Human recombinant GST-PI3K)	nM	3460
O=C(c1nn(C2CCN(C3CCOCC3)C2)c2c1CS(=O)(=O)c1ccccc1-2)N1CCOCC1 (stereo not drawn) [Example 300]	4 PI3K isoforms (Human recombinant GST-PI3K)	nM	77
